# Test system: HepG2
# Protocol Text: In vitro inhibition of cholesterol biosynthesis in Hep G2 cells
# Format: functional, Homo sapiens
# Parameters: concentration or dose not given beside the values
Measured Attribute: Inhibition (%)
Answers are plain numbers, in %.

Value sought for every listed compound: Inhibition.
1. CC(C)=CCC/C(C)=C/CC/C(C)=C/CCC1(C)CCc2cc(O)cc(Br)c2O1 (centres undefined)
2. CC(C)=CCC/C(C)=C/CC/C=C\CCC1(C)CCc2cc(O)c(C)c(C)c2O1 (centres undefined)
3. CC(C)=CCC/C(C)=C/CC/C(C)=C/CCc1cc(=O)c2cc(O)c(C)c(C)c2o1
4. CC(C)=CCC/C(C)=C/CCC1(C)CCc2c(O)cc(N3CCCC3)cc2O1 (centres undefined)

1. 62
2. 81
3. 71
4. 54

###

# Protocol Text: Compound oxidation potential using cyclic voltametry
# Format: ADME
Measured Attribute: Potential
Answers are plain numbers.

Guide cases for Potential, answers given:
Returns the measured Potential for the input compound. Input: CC(C)=CCC/C(C)=C/CC/C(C)=C/CCC1(C)CCc2cc(O)ccc2C1 (stereo not drawn) 1.48

What do we get for CC(C)=CCC/C(C)=C/CC/C(C)=C/CCC1(C)CCc2c(cc(C)c(O)c2C)O1 (stereo not drawn) ? 1.06

Now take the following compound into account.
Recorded Potential of CC(C)=CCCC1(C)CCc2cc(O)ccc2O1 (stereo not drawn) , please. 1.2
